SYSTEM NAME: Nav1.6 (Homo sapiens)
TEST SUMMARY: Nav two-pulse protocol, IonWorks Quattro electrophysiology
Assay type: cell-based
TEST SETTINGS: -120 mV to 0 mV, compound incubated 300 s, read-out: Nav1.6 Tonic
pIC50: −log10 of the molar value.
# reported pIC50; entries follow

// solved cases for pIC50 follow
> print(dat)
                                   compound  endpoint        result
1  CC(C)COc1cccc(CN2CCC(COCc3ccccn3)C2)c1 (centres unmarked)     pIC50        < 4.70
2  O=C(NCc1cccc(C(F)(F)F)c1)C1CCN(Cc2cccc(Oc3ccccc3)c2)C1 (centres unmarked)     pIC50  4.70 to 5.00
3  CC(C)COc1cccc(CN2CCC(n3cc(-c4ccccn4)nn3)C2)c1 (centres unmarked)     pIC50        < 4.70
4  O=C(NCc1ccccn1)C1CCN(Cc2cccc(Oc3cccc(C(F)(F)F)c3)c2)C1 (centres unmarked)     pIC50        < 4.70

Turning now to a further record.
Please report pIC50 for the following compound: Cn1ccnc1CNC(=O)C1(C)CCN(Cc2cccc(Oc3ccccc3)c2)C1 (centres unmarked)
< 4.70

* * *

SYSTEM NAME: UniProt:Q9UQD0
TEST SUMMARY: Nav two-pulse protocol, IonWorks Quattro electrophysiology
Assay type: cell-based
TEST SETTINGS: -120 mV to 0 mV, compound incubated 300 s, read-out: Nav1.6 inac
Structures can show the parent of a compound that is named as a salt.
ENDPOINT: IC50

// solved cases for IC50 follow
> print(dat)
                                   molecule           result
1  CC(C)COc1cccc(CN2CCC(c3noc(-c4ccccn4)n3)C2)c1 (centres unmarked)  1000 to 5000 nM
2  O=C(NCc1ccccn1)C1CCN(Cc2cccc(OC(F)(F)F)c2)C1 (centres unmarked) [Compound 109, hydrochloride]        < 1000 nM
3  O=C(NCc1ccccc1F)C1CCN(Cc2cccc(Oc3ccccc3)c2)C1 (centres unmarked)  1000 to 5000 nM
4  CC(C)COc1cccc(CN2CCC(n3cc(-c4ccccn4)nn3)C2)c1 (centres unmarked)  1000 to 5000 nM

Please report IC50 for the following molecule: COc1cccc(Oc2cccc(CN3CCC(F)(C(=O)NCc4ccccn4)C3)c2)c1 (centres unmarked)
1000 to 5000 nM

* * *

SYSTEM NAME: Nav1.6 (Homo sapiens, UniProt Q9UQD0)
Sequence (Q9UQD0 whole entry): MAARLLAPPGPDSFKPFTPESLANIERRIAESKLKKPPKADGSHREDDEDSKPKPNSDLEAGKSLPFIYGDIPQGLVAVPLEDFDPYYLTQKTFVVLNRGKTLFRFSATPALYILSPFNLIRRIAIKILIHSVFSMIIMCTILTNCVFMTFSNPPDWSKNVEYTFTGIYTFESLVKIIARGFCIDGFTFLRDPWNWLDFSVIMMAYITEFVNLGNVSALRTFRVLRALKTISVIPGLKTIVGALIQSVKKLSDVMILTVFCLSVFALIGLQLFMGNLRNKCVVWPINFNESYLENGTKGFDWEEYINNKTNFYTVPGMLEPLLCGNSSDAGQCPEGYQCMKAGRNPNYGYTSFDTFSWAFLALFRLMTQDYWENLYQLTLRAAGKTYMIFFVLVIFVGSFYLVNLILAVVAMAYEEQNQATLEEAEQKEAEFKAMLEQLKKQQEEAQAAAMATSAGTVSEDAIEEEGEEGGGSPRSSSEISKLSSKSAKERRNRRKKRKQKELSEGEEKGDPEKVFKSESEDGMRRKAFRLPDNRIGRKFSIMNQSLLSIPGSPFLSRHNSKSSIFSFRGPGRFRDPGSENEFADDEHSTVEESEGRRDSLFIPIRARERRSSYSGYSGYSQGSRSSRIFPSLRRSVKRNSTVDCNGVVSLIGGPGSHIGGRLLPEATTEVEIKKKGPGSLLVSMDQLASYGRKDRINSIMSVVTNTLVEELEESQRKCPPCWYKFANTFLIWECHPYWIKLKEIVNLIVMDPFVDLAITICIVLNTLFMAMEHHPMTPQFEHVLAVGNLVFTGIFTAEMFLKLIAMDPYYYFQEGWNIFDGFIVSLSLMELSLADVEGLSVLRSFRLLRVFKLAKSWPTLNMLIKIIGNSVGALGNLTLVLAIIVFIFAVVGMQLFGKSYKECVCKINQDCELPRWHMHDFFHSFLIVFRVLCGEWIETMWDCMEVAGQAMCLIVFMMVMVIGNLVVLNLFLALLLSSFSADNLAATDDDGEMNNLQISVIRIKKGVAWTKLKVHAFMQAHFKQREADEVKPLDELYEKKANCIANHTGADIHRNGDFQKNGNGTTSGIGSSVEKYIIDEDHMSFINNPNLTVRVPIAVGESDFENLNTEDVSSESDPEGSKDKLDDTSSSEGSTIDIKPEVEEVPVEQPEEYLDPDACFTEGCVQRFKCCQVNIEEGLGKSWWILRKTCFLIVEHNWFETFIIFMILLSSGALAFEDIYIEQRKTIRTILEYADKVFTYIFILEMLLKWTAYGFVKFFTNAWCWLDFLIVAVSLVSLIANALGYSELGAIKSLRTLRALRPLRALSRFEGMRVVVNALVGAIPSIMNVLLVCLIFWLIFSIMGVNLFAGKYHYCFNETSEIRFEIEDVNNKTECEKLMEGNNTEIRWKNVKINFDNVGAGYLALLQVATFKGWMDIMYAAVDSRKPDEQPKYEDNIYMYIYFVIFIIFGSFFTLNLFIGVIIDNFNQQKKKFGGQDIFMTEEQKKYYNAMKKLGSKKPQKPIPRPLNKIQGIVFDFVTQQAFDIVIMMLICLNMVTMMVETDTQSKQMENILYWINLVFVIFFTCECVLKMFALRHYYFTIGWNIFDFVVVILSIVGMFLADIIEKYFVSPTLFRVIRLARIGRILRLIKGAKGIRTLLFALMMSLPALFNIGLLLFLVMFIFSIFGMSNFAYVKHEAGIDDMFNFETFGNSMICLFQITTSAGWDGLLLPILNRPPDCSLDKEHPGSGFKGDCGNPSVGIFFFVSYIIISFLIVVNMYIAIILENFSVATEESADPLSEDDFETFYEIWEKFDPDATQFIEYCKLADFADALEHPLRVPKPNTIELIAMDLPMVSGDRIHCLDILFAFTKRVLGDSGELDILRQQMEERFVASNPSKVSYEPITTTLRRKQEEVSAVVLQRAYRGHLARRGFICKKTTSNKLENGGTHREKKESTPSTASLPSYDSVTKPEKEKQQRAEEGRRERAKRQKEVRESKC
TEST SUMMARY: Nav two-pulse protocol, IonWorks Quattro electrophysiology
Assay type: cell-based
TEST SETTINGS: -120 mV to 0 mV, compound incubated 300 s, read-out: Nav1.6 inac
pIC50: −log10 of the molar value.
ENDPOINT: pIC50

> print(dat)
                                   compound  endpoint        result
1  O=C(NCc1ccccn1)C1CCN(Cc2cccc(-c3ccccc3)c2)C1 (stereo not drawn)     pIC50  5.30 to 6.00
2  O=C(NCc1ccc(OC(F)(F)F)cc1)C1CCN(Cc2cccc(Oc3ccccc3)c2)C1 (stereo not drawn)     pIC50        > 6.00
3  Cc1cccc(Oc2cccc(CN3CCC(F)(C(=O)NCc4ccccn4)C3)c2)c1 (stereo not drawn)     pIC50  5.30 to 6.00
4  O=C(NCc1ccccn1)C1CCN(Cc2cccc(Oc3ccc(F)cc3)n2)C1 (stereo not drawn)     pIC50        < 5.30

Please report pIC50 for the following compound: COc1ccc(CNC(=O)C2CCN(Cc3cccc(Oc4ccccc4)c3)C2)cc1 (stereo not drawn)
> 6.00

Please report pIC50 for the following compound: CC(C)COc1cccc(CN2CCC(c3noc(-c4cc(Cl)ccn4)n3)C2)c1 (stereo not drawn)
5.30 to 6.00

Please report pIC50 for the following compound: Cc1ccc(F)cc1CNC(=O)C1CCN(Cc2cccc(Oc3ccccc3)c2)C1 (stereo not drawn)
> 6.00

Please report pIC50 for the following compound: O=C(NCc1ccccn1)C1CCN(Cc2cccc(Oc3cccnc3)c2)C1 (stereo not drawn)
5.30 to 6.00

Please report pIC50 for the following compound: O=C(NCc1ccccn1)C1(O)CCN(Cc2cccc(Oc3ccccc3)c2)C1=O (stereo not drawn)
5.30 to 6.00

* * *

SYSTEM NAME: UniProt:Q9UQD0
TEST SUMMARY: Nav two-pulse protocol, IonWorks Quattro electrophysiology
Type: cell-based
TEST SETTINGS: -120 mV to 0 mV, compound incubated 300 s, read-out: Nav1.6 Tonic
Method: Compound Plate Preparation Supplied compounds were sent as Assay Ready Plates, with 2 μL per well of compound in DMSO at 300× the final assay concentrations as described above and in the project proposal. All assay plates are stored at in a −80° C. freezer. On the day of the assay, 198 μL of external solution was added to the appropriate assay plate and mixed thoroughly. […] The parameters measured were the maximum inward current evoked on stepping to 0 mV from the 1st and 2nd pulse. […]
ENDPOINT: IC50

// solved cases for IC50 follow
> print(dat)
                                   compound  endpoint   result
1  Cc1ccc(-c2nc(C3CCN(Cc4cccc(OCC(C)C)c4)C3)no2)nc1 (stereo not drawn)      IC50  > 20 µM
2  CC1(C(=O)NCc2ccccn2)CCN(Cc2cccc(Oc3ncccn3)c2)C1 (stereo not drawn)      IC50  > 20 µM
3  O=C(NCc1ccccn1)C1CCN(Cc2cccc(Oc3ncccn3)c2)C1 (stereo not drawn)      IC50  > 20 µM

Please report IC50 for the following compound: Cc1cccnc1-c1nc(C2CCN(Cc3cccc(OCC(C)C)c3)C2)no1 (stereo not drawn)
> 20 µM

Please report IC50 for the following compound: Cc1cc(C)cc(Oc2cccc(CN3CCC(C(=O)NCc4ccccn4)C3)c2)c1 (stereo not drawn)
> 20 µM

Please report IC50 for the following compound: O=C(NCc1ccccn1)C1CCN(Cc2cccc(OCC(F)(F)F)c2)C1 (stereo not drawn)
> 20 µM

Please report IC50 for the following compound: O=C(NCc1ccc(C(F)(F)F)cc1)C1CCN(Cc2cccc(Oc3ccccc3)c2)C1 (stereo not drawn)
10 to 20 µM

Please report IC50 for the following compound: COc1ccccc1CNC(=O)C1CCN(Cc2cccc(Oc3ccccc3)c2)C1 (stereo not drawn)
> 20 µM

Please report IC50 for the following compound: CCC(NC(=O)C1(C)CCN(Cc2cccc(Oc3ccccc3)c2)C1)c1cccnc1 (stereo not drawn)
> 20 µM

Please report IC50 for the following compound: Cc1cncc(Oc2cccc(CN3CCC(C(=O)NCc4ccccn4)C3)c2)n1 (stereo not drawn)
> 20 µM

Please report IC50 for the following compound: COc1cccc(Oc2cccc(CN3CCC(C(=O)NCc4ccccn4)C3)c2)c1 (stereo not drawn)
> 20 µM

Please report IC50 for the following compound: O=C(NCc1ccccn1)C1CCN(Cc2cccc(Oc3ccccc3F)c2)C1 (stereo not drawn)
> 20 µM

Please report IC50 for the following compound: Cc1ccc(Oc2cccc(CN3CCC(C(=O)NCc4ccccn4)C3)c2)cc1C (stereo not drawn)
10 to 20 µM

Please report IC50 for the following compound: O=C(NCc1cccc(C(F)(F)F)n1)C1CCN(Cc2cccc(OCC(F)(F)F)c2)C1 (stereo not drawn)
> 20 µM

Please report IC50 for the following compound: Cc1ccc(Oc2cccc(CN3CCC(C(=O)NCc4ccccn4)C3)c2)cc1 (stereo not drawn)
> 20 µM

* * *

SYSTEM NAME: Nav1.6 (Homo sapiens)
TEST SUMMARY: Nav two-pulse protocol, IonWorks Quattro electrophysiology
Assay type: cell-based
TEST SETTINGS: -120 mV to 0 mV, compound incubated 300 s, read-out: Nav1.6 inac
pIC50: −log10 of the molar value.
# reported pIC50; entries follow

// solved cases for pIC50 follow
> print(dat)
                                   molecule  endpoint        result
1  COc1cccc(Oc2cccc(CN3CCC(C(=O)NCc4ccccn4)C3)c2)c1 (centres unmarked)     pIC50  5.30 to 6.00
2  Cc1cccnc1CNC(=O)C1CCN(Cc2cccc(OCC(F)(F)F)c2)C1 (centres unmarked)     pIC50  5.30 to 6.00
3  O=C(NCc1ccccn1)C1CN(Cc2cccc(Oc3ccccc3)c2)CCO1 (centres unmarked)     pIC50  5.30 to 6.00
4  O=C(NCCc1c[nH]cn1)C1CCN(Cc2cccc(Oc3ccccc3)c2)C1 (centres unmarked)     pIC50        < 5.30
5  COc1ccccc1CNC(=O)C1CCN(Cc2cccc(Oc3ccccc3)c2)C1 (centres unmarked)     pIC50        > 6.00

Please report pIC50 for the following molecule: Cc1cncc(Oc2cccc(CN3CCC(C(=O)NCc4ccccn4)C3)c2)n1 (centres unmarked)
< 5.30

Please report pIC50 for the following molecule: CC(C)OCc1cccc(CN2CCC(CNC(=O)c3ccccn3)C2)c1 (centres unmarked)
> 6.00

Please report pIC50 for the following molecule: O=C(NCc1ccccc1C(F)(F)F)C1CCN(Cc2cccc(Oc3ccccc3)c2)C1 (centres unmarked)
5.30 to 6.00

Please report pIC50 for the following molecule: O=C(NCC1CCCO1)C1CCN(Cc2cccc(Oc3ccccc3)c2)C1 (centres unmarked)
> 6.00
